System: HT29 colon
Test: NCI-60 one-dose screen, 48 h (100 = growth as untreated, 0 = no growth, -100 = all killed)
Conditions: 10 µM unless noted
The panel holds about 83,000 compounds, 20% with a hit somewhere; the sample as a whole holds those more often.
Please provide measured growth for the entries that follow.
Give bare numbers, in %.

I have 7 molecules here; please give me growth for each one.
1. COc1cc(OC)c2sc(-c3ccc(-n4cncc4-c4ccc(N)cc4)cc3)nc2c1
2. COc1c(C)c2c(c(O)c1C/C=C(\C)CCC(=O)OCCN1CCOCC1)C(=O)OC2
3. COc1cc(/C=C/C(=O)c2c(-c3ccc(Cl)cc3)nc3sc(C)nn23)cc(OC)c1OC
4. CN1CCCC1c1cccnc1 (stereo unspecified)
5. NS(=O)(=O)c1ccc(NC2=C(Cl)C(=O)c3ccccc3C2=O)cc1
6. CC/C=C\C=C/C(=O)N/C=C/CC1Cc2cccc(O)c2C(=O)O1 (stereo unspecified)
7. CCOC(=O)/C=C(/C)Sc1cc(O)c2ccccc2c1O

Ans:
[62.6, 1.17, 86.6, 115, 105, 44.1, 79.7]

====

Tested on: PC-3 prostate
Test: NCI-60 one-dose screen, 48 h (100 = growth as untreated, 0 = no growth, -100 = all killed)
Settings: 10 µM unless noted
Compounds without any hit were thinned out: in the full panel of roughly 83,000, 20% have a hit.
quantity-kind: growth (%)
Numbers only, in %.

Consider the following illustrative entries.
                                   molecule  unit_of_measure  reported_result
0             COc1ccc(/C=C2\NC(=S)NC2=O)cc1                %              106
1  COc1ccc(-c2nn(-c3cccc(Cl)c3)cc2C2CC(c3ccccc3)=NN2C(C)=O)cc1 (stereo not given)                %               69
2  CC(=O)Oc1ccc(C23c4ccccc4C2(OC(C)=O)c2cc(OC(C)=O)ccc23)cc1 (stereo not given)                %             30.9
3  Clc1ccc2c(Nc3ccc4oc(NCCN5CCCC5)nc4c3)ccnc2c1                %             79.9

Q: Provide growth value for the following molecule: `O=C(/C=C/c1ccc(O)c(O)c1)N1CCN(c2ccc(Cl)cc2)CC1`
Ans: 61.7

====

System: IGROV1 ovarian
Test: NCI-60 one-dose screen, 48 h (100 = growth as untreated, 0 = no growth, -100 = all killed)
Conditions: 10 µM unless noted
This is part of a sample that, as a whole, favours compounds with a hit. Of some 83,000 tested, about 20% had one in any assay.
Records here are stratified by growth; strata: group 1 = under 20%, group 2 = from 20% up to 90%, group 3 = 90% and over

These solved cases illustrate the format of a correct answer.
compound	assigned-category
COc1cc(NC(=O)c2cc3ccccc3cc2O)c(OC)cc1Cl	group 1
Cc1ccc(NC(=O)COC(=O)c2ccc(S(=O)(=O)N3CCCCCC3)cc2)cc1	group 3

Q: Record `CCN1C2=C(SC(=S)C1=C1SC(C(=O)OC)=C(C(=O)OC)S1)SC(=Nc1ccc(OC)cc1)C2=O` — which class?
Ans: group 1

Q: Record `NC(N)=N/N=C(/c1ccccc1)c1ccc(Cl)cc1` — which class?
Ans: group 1

Q: Record `COc1ccc2c(c1)C(=O)c1c-2c(OCCCN(C)C)nc2cc(Br)ccc12` — which class?
Ans: group 2

Q: Record `NC(=O)SCC(=O)Nc1ccccc1-c1ccccc1` — which class?
Ans: group 3

Q: Record `NC(=O)c1ncn([C@@H]2O[C@H](CO)[C@@H](O)[C@H]2O)n1` — which class?
Ans: group 3

Q: Record O=C(C(=O)N1CCCCC1)c1ccc(OC2OC(CO)C(O)C(O)C2O)cc1 (centres undefined) — which class?
Ans: group 2

Q: Record `COc1cc2cn3c4ccc(O)cc4nc(N)c3c2cc1OC` — which class?
Ans: group 2

Q: Record `Cn1cc(-c2csc(-c3cn(C)c4ncccc34)n2)c2cc(F)cnc21` — which class?
Ans: group 2

====

Test system: DU-145 prostate
Experiment: NCI-60 one-dose screen, 48 h
Settings: 10 µM unless noted
Compounds without any hit were thinned out: in the full panel of roughly 83,000, 20% have a hit. The source made the active and inactive calls. The calls were made as follows: active = growth percent below 10; inactive = the rest.
In this exercise, the only acceptable responses are T (active), F (inactive)

These solved cases illustrate the format of a correct answer.
>>> df
                                   compound  assigned_category
0           CCCCN(CCCC)CCCOC(=O)c1ccc(N)cc1                  F
1  COc1ccc(-c2nc3sccn3c2-c2ccnc(S(C)(=O)=O)n2)cc1                  F

Q: Hello, I am checking results. What call was entered for `COc1ccc(-c2oc3cc(O)c(OC)c(O)c3c(=O)c2OC)cc1O` ?
Ans: T

Q: Hello, I am checking results. What call was entered for `Clc1cccc(Cc2cn3cc(-c4ccccc4)nc3s2)c1` ?
Ans: F

Q: Hello, I am checking results. What call was entered for `COC(=O)CCC1=C(C)/C(=C/c2[nH]c(-c3ccc[nH]3)cc2OC)N=C1C` ?
Ans: F

====

System: IGROV1 ovarian
Experiment: NCI-60 one-dose screen, 48 h
Conditions: 10 µM unless noted
The panel holds about 83,000 compounds, 20% with a hit somewhere; the sample as a whole holds those more often. The source made the active and inactive calls. How the source made its calls: active means growth percent below 10; inactive means the rest.
In this exercise, the only acceptable responses are active, inactive

These solved cases illustrate the format of a correct answer.
>>> df
                                   molecule  assigned_category
0  O=C(/C(=C/c1cccc([N+](=O)[O-])c1)c1ccccc1)c1ccccc1           inactive
1  O=C(Nc1ccc(Cl)cc1)Nc1ccc(Oc2nncc3ccccc23)cc1             active
2           CCCCN(CCCC)CCCOC(=O)c1ccc(N)cc1           inactive

Q: Hello, I am checking results. What call was entered for `COc1ccc2c(c1)/C(=C\c1c[nH]c3ccc(F)cc13)C(=O)N2` ?
Ans: inactive

Q: Hello, I am checking results. What call was entered for `N#CCCCCCn1c2ccccc2c2c3c(c4c5ccccc5[nH]c4c21)C(=O)N(O)C3=O` ?
Ans: active

Q: Hello, I am checking results. What call was entered for `COc1ccc(OC)c2c1[nH]c(=O)c1c3ccccc3cn21` ?
Ans: active

Q: Hello, I am checking results. What call was entered for `COc1ccc2c(c1)[nH]c(=O)c1c3cc(OC)c(OC)cc3cn21` ?
Ans: active

Q: Hello, I am checking results. What call was entered for `O=C1CN(CO)C(=O)CN1CO` ?
Ans: inactive

Q: Hello, I am checking results. What call was entered for `N=c1ccn2c(n1)O[C@@H]1[C@@H](O)[C@H](CO)O[C@@H]12` ?
Ans: inactive

Q: Hello, I am checking results. What call was entered for COc1cc(C2NC(c3ccc(Cl)cc3)C(C)/C(=N/NC(N)=S)C2C)cc(OC)c1OC (stereo unspecified) ?
Ans: inactive

Q: Hello, I am checking results. What call was entered for `S=C(Nc1ccc(C2=NCCN2)cc1)Nc1ccc(C2=NCCN2)cc1` ?
Ans: inactive

Q: Hello, I am checking results. What call was entered for `COc1cc(OC)c2sc(-c3ccc(-n4cncc4-c4ccc(N)cc4)cc3)nc2c1` ?
Ans: inactive

Q: Hello, I am checking results. What call was entered for `Cc1nn(-c2ccc(Cl)cc2)c2nc3c(nc12)C(=O)C(=O)c1ccccc1-3` ?
Ans: inactive

Q: Hello, I am checking results. What call was entered for `Fc1ccc(-c2nc(Nc3ccc(-c4nc5ccccc5[nH]4)cc3)nc(N3CCOCC3)n2)cc1` ?
Ans: active

Q: Hello, I am checking results. What call was entered for `C[C@]12CC[C@@H]3c4ccc(O)cc4CC[C@H]3[C@@H]1CC[C@@H]2NS(=O)(=O)c1cccc(Br)c1` ?
Ans: inactive

Q: Hello, I am checking results. What call was entered for `COc1ccc(-c2csc(NC(=O)c3cc(O)c(O)c(O)c3)n2)cc1` ?
Ans: inactive

Q: Hello, I am checking results. What call was entered for `COC(=O)CCC1=C(CC(=O)OC)C(C)=N/C1=C\c1[nH]c(-c2ccc[nH]2)cc1OC` ?
Ans: inactive

====

Tested on: SF-295 CNS
Assay: NCI-60 one-dose screen, 48 h (100 = growth as untreated, 0 = no growth, -100 = all killed)
Details: 10 µM unless noted
Protocol: Cells are grown in 96 well plates and exposed to the test compound for 48 hours. Compounds are tested at a single concentration, which is 10^-5 M for most compounds. The reported endpoint is percent growth (GI% or GIPRCNT), where numbers from 0 - 100% represent growth inhibition, and numbers from -100% - 0 represent cell death. For example, a value of 40 represents 60% growth inhibition. A value of 0 means no net growth occurred over the course of the experiment. […]
About 83,000 compounds went through this panel and 20% of them were active in at least one assay; those are over-represented in the sample as a whole.
Could you mark each record yes (1) if its growth falls strictly under -30%, and no (0) if it equals or exceeds it?

These solved cases illustrate the format of a correct answer.
compound	assigned-category
COc1cc(/C=C/C(=O)c2c(-c3ccc(F)cc3)nc3sc(C)nn23)cc(OC)c1OC	no (0)
CCOC(=O)C(C(C)=O)c1nc2sc3cc(Cl)ccc3n2c(=N)c1C#N (stereo unspecified)	no (0)
COc1cccc2c1C(=O)c1c(O)c3c(c(O)c1C2=O)C[C@@](O)(/C(C)=N/NC(=O)c1cccc([N+](=O)[O-])c1)C[C@@H]3OC1CC(N)C(O)C(C)O1 (stereo partly specified)	yes (1)
COc1cc([C@@H]2c3cc4c(cc3C(O[C@@H]3O[C@@H]5CO[C@@H](c6cccs6)OC5[C@H](O)[C@H]3O)C3COC(=O)[C@@H]32)OCO4)cc(OC)c1O (stereo partly specified)	no (0)
CSc1nc2c(c(=O)[nH]1)C(c1ccc(Cl)cc1)C1=C(N2)/C(=C/c2ccc(Cl)cc2)CNC1 (stereo unspecified)	no (0)

Q: Record `O=C1N(C2CCCCC2)C(=O)N1C1CCCCC1` : is its growth strictly below -30%?
Ans: no (0)
